Task for the reader: assign each of the following binders its reported pKd.
# target_entity: T1, Sos-S1 peptide (Drosophila melanogaster, UniProt P26675)
# T1 chain: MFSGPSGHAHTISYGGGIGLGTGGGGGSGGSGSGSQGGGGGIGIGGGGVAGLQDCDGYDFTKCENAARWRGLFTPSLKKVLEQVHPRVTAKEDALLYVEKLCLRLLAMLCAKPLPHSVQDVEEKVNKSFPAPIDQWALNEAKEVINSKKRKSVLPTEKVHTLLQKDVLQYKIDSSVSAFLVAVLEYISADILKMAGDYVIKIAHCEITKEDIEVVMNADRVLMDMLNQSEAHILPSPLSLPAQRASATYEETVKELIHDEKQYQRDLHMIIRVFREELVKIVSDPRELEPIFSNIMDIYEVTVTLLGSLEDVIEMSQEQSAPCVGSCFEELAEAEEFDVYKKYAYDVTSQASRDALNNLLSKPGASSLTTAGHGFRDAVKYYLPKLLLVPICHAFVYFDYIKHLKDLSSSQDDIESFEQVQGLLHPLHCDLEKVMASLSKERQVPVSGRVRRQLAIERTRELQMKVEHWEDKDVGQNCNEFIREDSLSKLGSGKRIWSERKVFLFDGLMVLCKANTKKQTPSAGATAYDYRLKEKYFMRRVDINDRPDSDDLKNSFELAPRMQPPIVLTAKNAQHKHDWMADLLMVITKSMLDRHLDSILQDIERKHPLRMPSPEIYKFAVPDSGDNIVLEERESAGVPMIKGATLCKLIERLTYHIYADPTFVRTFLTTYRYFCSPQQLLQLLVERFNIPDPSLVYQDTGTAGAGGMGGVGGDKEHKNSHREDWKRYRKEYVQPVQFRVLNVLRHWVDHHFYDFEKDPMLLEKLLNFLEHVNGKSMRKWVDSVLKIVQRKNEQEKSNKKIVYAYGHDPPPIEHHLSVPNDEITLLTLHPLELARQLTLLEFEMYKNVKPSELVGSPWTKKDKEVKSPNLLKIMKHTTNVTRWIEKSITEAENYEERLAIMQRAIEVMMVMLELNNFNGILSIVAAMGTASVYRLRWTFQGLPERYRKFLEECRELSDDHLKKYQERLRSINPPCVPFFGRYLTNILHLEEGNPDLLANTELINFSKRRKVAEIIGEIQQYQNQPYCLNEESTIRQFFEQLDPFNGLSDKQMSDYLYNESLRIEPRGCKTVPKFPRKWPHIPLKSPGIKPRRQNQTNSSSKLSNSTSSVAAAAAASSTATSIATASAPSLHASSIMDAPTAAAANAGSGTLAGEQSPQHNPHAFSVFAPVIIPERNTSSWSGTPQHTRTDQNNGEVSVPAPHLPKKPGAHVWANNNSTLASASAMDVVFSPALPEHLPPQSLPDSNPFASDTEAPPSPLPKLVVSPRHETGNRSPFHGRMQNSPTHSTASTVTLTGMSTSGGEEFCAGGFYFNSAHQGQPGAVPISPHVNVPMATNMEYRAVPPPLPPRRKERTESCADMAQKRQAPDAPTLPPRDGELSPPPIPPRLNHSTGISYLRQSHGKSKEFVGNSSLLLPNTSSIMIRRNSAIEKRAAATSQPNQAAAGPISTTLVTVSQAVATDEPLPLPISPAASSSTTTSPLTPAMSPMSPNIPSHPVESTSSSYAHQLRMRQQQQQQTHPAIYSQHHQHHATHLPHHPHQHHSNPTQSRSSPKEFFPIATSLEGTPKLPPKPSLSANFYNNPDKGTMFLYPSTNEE
# assay_name: NMR titration
pKd: −log10 of the molar value.

Consider the binder Drk CSH3 (protein) PEEMLVQALYDFVPQESGELDFRRGDVITVTDRSDENWWNGEIGNRKGIFPATYVTPYHS . State its measured pKd. ~3.80

Consider the binder Drk NSH3 (protein) MEAIAKHDFSATADDELSFRKTQILKILNMEDDSNWYRAELDGKEGLIPSNYIEMKNH . State its measured pKd. ~4.89
